Test system: Vero
Test: Cytotoxicity against African green monkey Vero cells
Type: cell-based
Settings: chlorocebus sabaeus
readout label: CC50

1. O=C(O)[C@H]1C2C=CC(CC2)[C@@H]1Nc1nc(-c2c[nH]c3ncc(F)cc23)ncc1F (stereo partly drawn); > 100 µM
2. O=C(O)[C@H]1C2C=CC(C2)[C@@H]1Nc1nc(-c2c[nH]c3ncc(F)cc23)ncc1F (stereo partly drawn); > 100 µM
3. O=C(O)[C@H]1C2C=CC(CC2)[C@@H]1c1nnc2c(F)cnc(-c3c[nH]c4ncc(F)cc34)n12 (stereo partly drawn); ≥ 100 µM
